Test system: HDAC1, HDAC2, HDAC3 and HDAC6
assay-comment: HDAC selectivity of the inhibitor panel
Type: biochemical
experimental-parameters: HDAC isoform(s) the inhibitor is selective for
property-name: Selectivity

O=C(NO)c1cnc(NC2(c3cccc(F)c3)CCCCC2)nc1 = HDAC6
O=C(CCCCCCNC(=O)c1cnc(N(c2ccccc2)c2ccccc2Cl)nc1)NO = HDAC6 (1/2/3)
Nc1cc(F)ccc1NC(=O)c1cnc2c(C3CC3)c(N3CCNCC3)ccc2c1 = HDAC3
O=C(CCCCCCNC(=O)c1cnc(N(c2ccccc2)c2ccccc2)nc1)NO = HDAC6 (1/2/3)
